Answer each item with its documented melting point.

Example results:
COc1cc(-c2nc(N3N=C(c4c5ccccc5cc5ccccc45)CC3c3cc(OC)c(OC)c(OC)c3)[nH]c(=O)c2C#N)cc(OC)c1OC (centres unmarked) [Compound 4o]
165 to 166 °C
CN(C)c1ccc(-c2nc(NN)[nH]c(=O)c2C#N)cc1 [Compound 2e]
214 to 216 °C
N#Cc1c(-c2c[nH]c3ccccc23)nc(N2N=C(c3c4ccccc4cc4ccccc34)CC2c2ccc(F)cc2)[nH]c1=O (centres unmarked) [Compound 4i]
184 to 185 °C
COc1cc(-c2nc(N3N=C(c4c5ccccc5cc5ccccc45)CC3c3ccc(F)cc3)[nH]c(=O)c2C#N)cc(OC)c1OC (centres unmarked) [Compound 4m]
148 to 150 °C

Please find the next molecule below.
Requested field: melting point. Item: N#Cc1c(-c2ccc(F)cc2)nc(N2N=C(c3c4ccccc4cc4ccccc34)CC2c2c[nH]c3ccccc23)[nH]c1=O (centres unmarked) [Compound 4h]
143 to 145 °C

====

# System: Huh-7 cell line
# measurementDescription: Resazurin cell growth inhibition assay, Huh-7
# Format: cell-based, human
# details: Homo sapiens, Huh-7, 48 h, resazurin assay, 48 h, M ± SEM of three independent experiments; read-out: Cytotoxic activity IC50, Huh-7 cell line
Could you mark each record YES if its IC50 falls strictly under 10 µg/mL, and NO if it equals or exceeds it?

// known answers, use as guide
CN(C)c1ccc(-c2nc(NN)[nH]c(=O)c2C#N)cc1
NO
COc1cc(-c2nc(NN)[nH]c(=O)c2C#N)cc(OC)c1OC
NO
O=C(/C=C/c1c[nH]c2ccccc12)c1c2ccccc2cc2ccccc12
NO
COc1cc(C2CC(c3c4ccccc4cc4ccccc34)=NN2c2nc(-c3ccccc3)c(C#N)c(=O)[nH]2)cc(OC)c1OC (centres unmarked)
NO
COc1cc(C2CC(c3c4ccccc4cc4ccccc34)=NN2c2nc(-c3ccc(F)cc3)c(C#N)c(=O)[nH]2)cc(OC)c1OC (centres unmarked)
YES

Answer whether the compound N#Cc1c(-c2ccccc2)nc(NN)[nH]c1=O has IC50 strictly less than 10 µg/mL
NO

Answer whether the compound N#Cc1c(-c2ccccc2)nc(N2N=C(c3c4ccccc4cc4ccccc34)CC2c2c[nH]c3ccccc23)[nH]c1=O (centres unmarked) has IC50 strictly less than 10 µg/mL
YES

Answer whether the compound CN(C)c1ccc(C2CC(c3c4ccccc4cc4ccccc34)=NN2c2nc(-c3ccccc3)c(C#N)c(=O)[nH]2)cc1 (centres unmarked) has IC50 strictly less than 10 µg/mL
NO

Answer whether the compound COc1cc(C2CC(c3c4ccccc4cc4ccccc34)=NN2c2nc(-c3ccc(N(C)C)cc3)c(C#N)c(=O)[nH]2)cc(OC)c1OC (centres unmarked) has IC50 strictly less than 10 µg/mL
NO

Answer whether the compound COc1cc(-c2nc(N3N=C(c4c5ccccc5cc5ccccc45)CC3c3ccc(N(C)C)cc3)[nH]c(=O)c2C#N)cc(OC)c1OC (centres unmarked) has IC50 strictly less than 10 µg/mL
YES

Answer whether the compound CN(C)c1ccc(-c2nc(N3N=C(c4c5ccccc5cc5ccccc45)CC3c3c[nH]c4ccccc34)[nH]c(=O)c2C#N)cc1 (centres unmarked) has IC50 strictly less than 10 µg/mL
YES

Answer whether the compound COc1cc(-c2nc(N3N=C(c4c5ccccc5cc5ccccc45)CC3c3cc(OC)c(OC)c(OC)c3)[nH]c(=O)c2C#N)cc(OC)c1OC (centres unmarked) has IC50 strictly less than 10 µg/mL
NO

Answer whether the compound CN(C)c1ccc(-c2nc(N3N=C(c4c5ccccc5cc5ccccc45)CC3c3ccc(F)cc3)[nH]c(=O)c2C#N)cc1 (centres unmarked) has IC50 strictly less than 10 µg/mL
YES
